self-splicing fitness (ln) by entry:
Assay Details: self-splicing fitness, log relative to wild type (ln ratio); higher = more splicing; Tetrahymena group I intron in knt gene, E. coli kanamycin selection, DiMSum; sequences stand for … in CUCUCU…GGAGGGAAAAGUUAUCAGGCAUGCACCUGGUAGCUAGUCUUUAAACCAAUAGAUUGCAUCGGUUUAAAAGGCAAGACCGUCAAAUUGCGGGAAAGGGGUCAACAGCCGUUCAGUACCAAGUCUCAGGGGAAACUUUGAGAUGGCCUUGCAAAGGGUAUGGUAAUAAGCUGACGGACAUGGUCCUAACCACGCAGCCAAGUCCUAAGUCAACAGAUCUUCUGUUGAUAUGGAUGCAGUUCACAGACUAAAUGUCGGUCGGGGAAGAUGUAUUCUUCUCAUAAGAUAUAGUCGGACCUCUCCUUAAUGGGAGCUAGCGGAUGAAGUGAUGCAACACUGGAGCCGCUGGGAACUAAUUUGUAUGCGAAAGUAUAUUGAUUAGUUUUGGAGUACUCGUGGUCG;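 further: selection with 25 µg/mL kanamycin versus none on LB agar overnight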
Assay Conditions: 30 °C
Measured Parameter: self-splicing fitness (ln)

* ACGUAGCAAUAUUACGGCCC | -0.341
* UCUGAGCAAUAUUACGUAAU | -3.33
* ACACAGCAAUAUUACGAUUG | -2.22
* UGCGAGCAAUAUUACGAUGU | -3.53
* UCUCAGCAAUAUUACGUAUA | -2.86
* ACACAGCAAUAUUACGCCAA | -2.36
* UAGCAGCAAUAUUACGACGA | -0.341
* AUAUAGCAAUAUUACGAAAU | -1.01
* AAAUAGCAAUAUUACGGGUA | -2.15
* CGCCAGCAAUAUUACGUAUG | -0.516
* UAGAAGCAAUAUUACGGCAG | -0.136
* GGGCAGCAAUAUUACGGUUC | -1.53
* GUUUAGCAAUAUUACGGCCC | -1.66
* UGGGAGCAAUAUUACGUAGG | -3.24
* CCGUAGCAAUAUUACGUUUU | -4.21
* GUCCAGCAAUAUUACGCAAG | -1.32
* AGGUAGCAAUAUUACGUCGA | -1.4
* UAUCAGCAAUAUUACGCGGG | -0.936
* GGAGAGCAAUAUUACGUGCU | -2.88
* GUUGAGCAAUAUUACGAUUA | -1.94
* UUUCAGCAAUAUUACGGCUA | 0.189
* UCUUAGCAAUAUUACGCGUA | -3.4
* GUAGAGCAAUAUUACGAUGG | -2.34
* UGAUAGCAAUAUUACGGCGU | -2.1
* UCGCAGCAAUAUUACGGAAA | -2.71

----------
self-splicing fitness (ln) by entry:
Assay Details: self-splicing fitness, log relative to wild type (ln ratio); higher = more splicing; Tetrahymena group I intron in knt gene, E. coli kanamycin selection, DiMSum; sequences stand for … in CUCUCU…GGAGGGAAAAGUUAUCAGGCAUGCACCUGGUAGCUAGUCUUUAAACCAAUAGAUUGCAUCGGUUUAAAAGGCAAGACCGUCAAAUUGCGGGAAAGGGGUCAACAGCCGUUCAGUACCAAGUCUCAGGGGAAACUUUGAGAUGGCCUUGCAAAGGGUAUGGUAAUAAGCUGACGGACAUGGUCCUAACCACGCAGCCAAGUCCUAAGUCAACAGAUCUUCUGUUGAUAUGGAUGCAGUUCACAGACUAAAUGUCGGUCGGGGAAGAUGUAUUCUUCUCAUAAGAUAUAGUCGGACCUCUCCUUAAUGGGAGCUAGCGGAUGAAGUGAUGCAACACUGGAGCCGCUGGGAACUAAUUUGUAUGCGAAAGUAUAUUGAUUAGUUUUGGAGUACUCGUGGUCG
Assay Conditions: 30 °C
Measured Parameter: self-splicing fitness (ln)

* UGGCAGCAAUAUUACGACCG | -0.969
* UUAGAGCAAUAUUACGCUGA | -2.6
* CAAUAGCAAUAUUACGGUAG | -1.34
* AUCAAGCAAUAUUACGCAAG | -1.99
* CCAUAGCAAUAUUACGCGGG | -3.99
* AACUAGCAAUAUUACGCCAG | -1.99
* CGUUAGCAAUAUUACGUGGG | -1.39
* CCCCAGCAAUAUUACGUUGA | -4.14
* CGACAGCAAUAUUACGUCCU | -0.518
* GAUCAGCAAUAUUACGCCUC | -1.36
* CUAUAGCAAUAUUACGAAAG | -1.84
* GAAGAGCAAUAUUACGACAG | -3.36
* ACCCAGCAAUAUUACGUGUG | -2.63
* AUAUAGCAAUAUUACGUAGC | -4.04
* GACGAGCAAUAUUACGCGGC | -3.25
